FYI, the data here is from PubChem BioAssay (NCI).

Assignment: determine reported TGI for the given molecules.
- Test system: SNB-75 CNS
- test: NCI tumour cell line growth inhibition, 48 h
Where a SMILES comes first, the peptide text is derived from it. The star is where a group is joined. Boc = CC(C)(C)OC(=O)*
Numbers only, in µM.

Give measured TGI for every item shown.
1. CN(C)C(=S)/N=c1\ssc(=S)n1-c1ccccc1
2. COc1ccc(OC)c(/C=C/C(=O)C(C)(C)C)c1
3. COC(=O)C(Cc1c[nH]c2ccccc12)NC(=O)C(Cc1c[nH]c2ccccc12)NC(=O)C(Cc1c[nH]c2ccccc12)NC(=O)OC(C)(C)C (stereo not drawn) (Boc-Trp-Trp-Trp-OMe; configuration not given here)
4. COc1cc2cn3c4ccc(O)cc4nc(N)c3c2cc1OC
5. COC1/C=C\OC2(C)Oc3c(C)c(O)c4c(O)c(c(/C=N\OCCCc5ccccc5)c(O)c4c3C2=O)NC(=O)/C(C)=C\C=C/C(C)C(O)C(C)C(O)C(C)C(OC(C)=O)C1C (stereo not drawn)
6. COc1ccc(C2C3=C(COC3=O)OC(C)(C)Oc3cc4c(cc32)OCO4)cc1 (stereo not drawn)

[34.1, 56.8, 42, 7.49, 8.86, 23]
